In this section we review reported IC50 values for a set of molecules.
ASSAY SYSTEM: cytochrome P450 2C8-isoenzyme (Homo sapiens, UniProt P10632)
Sequence (P10632 1-490): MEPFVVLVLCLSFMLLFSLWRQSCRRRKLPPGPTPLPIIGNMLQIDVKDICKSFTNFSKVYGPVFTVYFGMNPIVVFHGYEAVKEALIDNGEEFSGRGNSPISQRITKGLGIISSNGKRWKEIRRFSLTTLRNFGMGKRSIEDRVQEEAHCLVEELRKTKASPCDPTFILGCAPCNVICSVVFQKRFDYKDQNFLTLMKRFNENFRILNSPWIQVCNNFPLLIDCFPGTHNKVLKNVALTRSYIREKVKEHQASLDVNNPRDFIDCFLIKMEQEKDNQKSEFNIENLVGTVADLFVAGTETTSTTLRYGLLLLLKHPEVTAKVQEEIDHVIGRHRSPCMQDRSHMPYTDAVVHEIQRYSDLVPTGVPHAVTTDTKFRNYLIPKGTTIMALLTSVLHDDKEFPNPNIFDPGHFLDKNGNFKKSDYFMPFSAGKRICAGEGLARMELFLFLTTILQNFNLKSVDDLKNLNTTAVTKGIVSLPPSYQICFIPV
Reply numerically in µM, unit not repeated.

Previously resolved entries follow.
{"columns": ["MOLECULE", "ASSAY SYSTEM", "IC50 [µM]"],
 "data": [
  ["Cc1cc(-c2ccn(C)c(=O)n2)cc(C)c1-c1ccc(F)c2c1CC[C@H]2Nc1ccc([C@H]2C[C@@H]2C(=O)O)cn1 [Example 71]", "cytochrome P450 2C8-isoenzyme (Homo sapiens, UniProt P10632)", 18],
  ["Cc1cc(-c2nnn(CC(C)(C)O)n2)cc(C)c1-c1ccc(F)c2c1CC[C@H]2Nc1ccc([C@H]2C[C@@H]2C(=O)O)cn1 [Example 14]", "cytochrome P450 2C8-isoenzyme (Homo sapiens, UniProt P10632)", 45],
  ["COc1c(F)c(F)c(-c2ccc(F)c3c2CC[C@H]3Nc2ccc([C@H]3C[C@@H]3C(=O)O)cn2)c(F)c1F [Example 76]", "cytochrome P450 2C8-isoenzyme (Homo sapiens, UniProt P10632)", 30],
  ["Cc1cc(OCC2CCOCC2)cc(C)c1-c1ccc(F)c2c1CC[C@H]2Nc1ccc([C@H]2C[C@@H]2C(=O)O)cn1 [Example 61]", "cytochrome P450 2C8-isoenzyme (Homo sapiens, UniProt P10632)", 15],
  ["COc1cc(OC)c(Cl)c(-c2ccc(F)c3c2CC[C@H]3Nc2ccc([C@H]3C[C@@H]3C(=O)O)cn2)c1Cl [Example 53]", "cytochrome P450 2C8-isoenzyme (Homo sapiens, UniProt P10632)", 11],
  ["Cc1cccc(C)c1-c1ccc(F)c2c1CC[C@H]2Nc1ccc([C@H]2C[C@@H]2C(=O)O)cn1 [Example 17]", "cytochrome P450 2C8-isoenzyme (Homo sapiens, UniProt P10632)", 34],
  ["Cc1cc(OCc2ccccc2)cc(C)c1-c1ccc(F)c2c1CC[C@H]2Nc1ccc([C@H]2C[C@@H]2C(=O)O)cn1 [Example 32]", "cytochrome P450 2C8-isoenzyme (Homo sapiens, UniProt P10632)", 12],
  ["Cc1cc(-c2cc(=O)n(C)cn2)cc(C)c1-c1ccc(F)c2c1CC[C@H]2Nc1ccc([C@H]2C[C@@H]2C(=O)O)cn1 [Example 45]", "cytochrome P450 2C8-isoenzyme (Homo sapiens, UniProt P10632)", 24],
  ["CCc1cccc(CC)c1-c1ccc(F)c2c1CC[C@H]2Nc1ccc([C@H]2C[C@@H]2C(=O)O)cn1 [Example 23]", "cytochrome P450 2C8-isoenzyme (Homo sapiens, UniProt P10632)", 11],
  ["Cc1cc(-c2ccnn2C)cc(C)c1-c1ccc(F)c2c1CC[C@H]2Nc1ccc([C@H]2C[C@@H]2C(=O)O)cn1 [Example 31]", "cytochrome P450 2C8-isoenzyme (Homo sapiens, UniProt P10632)", 9]
]}

According to the records, this molecule Cc1cc(OCC2(O)CCSCC2)cc(C)c1-c1ccc(F)c2c1CC[C@H]2Nc1ccc([C@H]2C[C@@H]2C(=O)O)cn1 [Example 73] displays IC50 of 20

According to the records, this molecule Cc1cc(OCC(C)(C)C#N)cc(C)c1-c1ccc(F)c2c1CC[C@H]2Nc1ccc([C@H]2C[C@@H]2C(=O)O)cn1 [Example 35] displays IC50 of 18

According to the records, this molecule Cc1cc(-c2ccc(=O)n(C)c2)cc(C)c1-c1ccc(F)c2c1CC[C@H]2Nc1ccc([C@H]2C[C@@H]2C(=O)O)cn1 [Example 37] displays IC50 of 17

According to the records, this molecule O=C(O)[C@H]1C[C@@H]1c1ccc(N[C@@H]2CCc3c(-c4ccccc4C(F)(F)F)ccc(F)c32)nc1 [Example 74] displays IC50 of 21

According to the records, this molecule Cc1cc(OC2CCOCC2)cc(C)c1-c1ccc(F)c2c1CC[C@H]2Nc1ccc([C@H]2C[C@@H]2C(=O)O)cn1 [Example 15] displays IC50 of 26
